Reference source for all entries: patent US20240041042A1

- Test system: Polygonum convolvulus (POLCO)
- TEST_DESCRIPTION: Pre-emergence herbicidal action against POLCO
- Format: in vivo
- SETUP_CONDITIONS: dosage 320 g/ha
EXPERIMENTAL_ENDPOINT: Pre-emergence action against POLCO in % (%)

[[record]]
compound = "COC(=O)COc1nn(-c2nc(F)ccc2F)c(-c2cncc(F)c2)c1Cl"
experimental_endpoint = "Pre-emergence action against POLCO in %"
readout_units = "%"
value_reported = 90

[[record]]
compound = "CCOC(=O)CSc1nn(-c2ccccn2)c(-c2cncc(F)c2)c1Br"
experimental_endpoint = "Pre-emergence action against POLCO in %"
readout_units = "%"
value_reported = 90

[[record]]
compound = "COC(=O)CNC(=O)COc1nn(-c2ncccc2C(F)(F)F)c(-c2cncc(F)c2)c1Br"
experimental_endpoint = "Pre-emergence action against POLCO in %"
readout_units = "%"
value_reported = 80

[[record]]
compound = "O=C(O)COc1nn(-c2ncccc2F)c(-c2cncc(F)c2)c1C1CC1"
experimental_endpoint = "Pre-emergence action against POLCO in %"
readout_units = "%"
value_reported = 90

[[record]]
compound = "C[C@@H](Oc1nn(-c2nc(F)ccc2F)c(-c2ccc(F)nc2)c1Br)C(=O)O"
experimental_endpoint = "Pre-emergence action against POLCO in %"
readout_units = "%"
value_reported = 90

[[record]]
compound = "CCOC(=O)COc1nn(-c2ncccc2F)c(-c2cncc(F)c2)c1C1CC1"
experimental_endpoint = "Pre-emergence action against POLCO in %"
readout_units = "%"
value_reported = 100

[[record]]
compound = "COC(=O)COc1nn(-c2ncccc2F)c(-c2ccc(F)nc2)c1Br"
experimental_endpoint = "Pre-emergence action against POLCO in %"
readout_units = "%"
value_reported = 100

[[record]]
compound = "COC(=O)[C@H](C)COC(=O)COc1nn(-c2ccccn2)c(-c2cncc(F)c2)c1Cl"
experimental_endpoint = "Pre-emergence action against POLCO in %"
readout_units = "%"
value_reported = 100

[[record]]
compound = "CCOC(=O)COc1nn(-c2ccccn2)c(-c2ccnc(F)c2)c1Br"
experimental_endpoint = "Pre-emergence action against POLCO in %"
readout_units = "%"
value_reported = 90

[[record]]
compound = "CS(=O)(=O)CCOC(=O)COc1nn(-c2ccccn2)c(-c2ccc(F)nc2)c1Br"
experimental_endpoint = "Pre-emergence action against POLCO in %"
readout_units = "%"
value_reported = 80

[[record]]
compound = "COCCOCCOC(=O)[C@@H](C)Oc1nn(-c2ncccc2F)c(-c2ccc(F)nc2)c1Br"
experimental_endpoint = "Pre-emergence action against POLCO in %"
readout_units = "%"
value_reported = 90

[[record]]
compound = "COCCOC(=O)[C@@H](C)Oc1nn(-c2ncccc2F)c(-c2ccc(F)nc2)c1Br"
experimental_endpoint = "Pre-emergence action against POLCO in %"
readout_units = "%"
value_reported = 90

[[record]]
compound = "O=C(O)COc1nn(-c2ccccn2)c(-c2ccc(F)nc2)c1F"
experimental_endpoint = "Pre-emergence action against POLCO in %"
readout_units = "%"
value_reported = 90

[[record]]
compound = "COC(=O)CCOC(=O)COc1nn(-c2ccccn2)c(-c2cncc(F)c2)c1Cl"
experimental_endpoint = "Pre-emergence action against POLCO in %"
readout_units = "%"
value_reported = 90

[[record]]
compound = "COC(=O)[C@@H](C)Oc1nn(-c2ccccn2)c(-c2cncc(F)c2)c1Br"
experimental_endpoint = "Pre-emergence action against POLCO in %"
readout_units = "%"
value_reported = 90

[[record]]
compound = "COC(=O)CNC(=O)COc1nn(-c2ccccn2)c(-c2ccc(F)nc2)c1Cl"
experimental_endpoint = "Pre-emergence action against POLCO in %"
readout_units = "%"
value_reported = 90

[[record]]
compound = "Cc1cccnc1-n1nc(OCC(=O)O)c(Cl)c1-c1ccc(F)nc1"
experimental_endpoint = "Pre-emergence action against POLCO in %"
readout_units = "%"
value_reported = 100

[[record]]
compound = "COC(=O)[C@@H](C)Oc1nn(-c2nc(F)ccc2F)c(-c2ccc(F)nc2)c1Br"
experimental_endpoint = "Pre-emergence action against POLCO in %"
readout_units = "%"
value_reported = 90

[[record]]
compound = "CC(NC(=O)[C@@H](C)Oc1nn(-c2ccccn2)c(-c2ccc(F)nc2)c1Cl)C(=O)O (stereo partly shown)"
experimental_endpoint = "Pre-emergence action against POLCO in %"
readout_units = "%"
value_reported = 90

[[record]]
compound = "O=C(O)CSc1nn(-c2ccccn2)c(-c2cncc(F)c2)c1I"
experimental_endpoint = "Pre-emergence action against POLCO in %"
readout_units = "%"
value_reported = 90

[[record]]
compound = "CCOC(=O)[C@@H](C)Oc1nn(-c2ncccc2Cl)c(-c2ccc(F)nc2)c1Br"
experimental_endpoint = "Pre-emergence action against POLCO in %"
readout_units = "%"
value_reported = 100

[[record]]
compound = "O=C(O)COc1nn(-c2ccccn2)c(-c2cncc(F)c2)c1Cl"
experimental_endpoint = "Pre-emergence action against POLCO in %"
readout_units = "%"
value_reported = 90

[[record]]
compound = "COC(=O)[C@@H](C)Oc1nn(-c2ccnc(Cl)c2)c(-c2ccc(F)nc2)c1Br"
experimental_endpoint = "Pre-emergence action against POLCO in %"
readout_units = "%"
value_reported = 100

[[record]]
compound = "CCOC(=O)COc1nn(-c2cccc(C)n2)c(-c2ccc(F)nc2)c1Cl"
experimental_endpoint = "Pre-emergence action against POLCO in %"
readout_units = "%"
value_reported = 90

[[record]]
compound = "CC(C)C(Oc1nn(-c2ccccn2)c(-c2ccc(F)nc2)c1Br)C(=O)O (stereo not shown)"
experimental_endpoint = "Pre-emergence action against POLCO in %"
readout_units = "%"
value_reported = 80

[[record]]
compound = "CCOC(=O)COc1nn(-c2ncccc2Cl)c(-c2ccc(F)nc2)c1Br"
experimental_endpoint = "Pre-emergence action against POLCO in %"
readout_units = "%"
value_reported = 90

[[record]]
compound = "COC(=O)C(C)NC(=O)[C@@H](C)Oc1nn(-c2ccccn2)c(-c2cncc(F)c2)c1Br (stereo partly shown)"
experimental_endpoint = "Pre-emergence action against POLCO in %"
readout_units = "%"
value_reported = 90

[[record]]
compound = "CCOC(=O)COc1nn(-c2ncccc2F)c(-c2ccc(F)nc2)c1Cl"
experimental_endpoint = "Pre-emergence action against POLCO in %"
readout_units = "%"
value_reported = 100

[[record]]
compound = "COC(=O)[C@@H](C)Oc1nn(-c2ccccn2)c(-c2ccc(Cl)nc2)c1Br"
experimental_endpoint = "Pre-emergence action against POLCO in %"
readout_units = "%"
value_reported = 80

[[record]]
compound = "CCOC(=O)COc1nn(-c2ncccc2F)c(-c2ccc(F)nc2)c1F"
experimental_endpoint = "Pre-emergence action against POLCO in %"
readout_units = "%"
value_reported = 80

[[record]]
compound = "CS(=O)(=O)NC(=O)COc1nn(-c2ncccc2F)c(-c2ccc(F)nc2)c1Br"
experimental_endpoint = "Pre-emergence action against POLCO in %"
readout_units = "%"
value_reported = 90

[[record]]
compound = "COC(=O)CNC(=O)[C@@H](C)Oc1nn(-c2ccccn2)c(-c2cncc(F)c2)c1Br"
experimental_endpoint = "Pre-emergence action against POLCO in %"
readout_units = "%"
value_reported = 90

[[record]]
compound = "COC(=O)CCOC(=O)COc1nn(-c2ccccn2)c(-c2ccc(F)nc2)c1F"
experimental_endpoint = "Pre-emergence action against POLCO in %"
readout_units = "%"
value_reported = 80

[[record]]
compound = "COC(=O)CCOC(=O)COc1nn(-c2ncccc2C(F)(F)F)c(-c2ccc(F)nc2)c1Br"
experimental_endpoint = "Pre-emergence action against POLCO in %"
readout_units = "%"
value_reported = 80

